test system: Bromodomain-containing protein 4 (Homo sapiens)
test protocol: Inhibition of BRD4 BD1 (unknown origin) by TR-FRET assay
Property: IC50; scope: individual compounds
parameter: IC50

> print(dat)
                              line.notation  obs.value
1  CC(=O)N1CCC[C@@H](Cn2c(-c3cc(C)c(=O)n(C)c3)nc3cc(Br)ccc32)C1      10 nM
2  CC(=O)N1CCC[C@H](Cn2c(-c3cc(C)c(=O)n(C)c3)nc3ccccc32)C1    31.6 nM

----------
test system: Bromodomain-containing protein 4 (Homo sapiens)
test protocol: Inhibition of BRD4 BD2 (unknown origin) by TR-FRET assay
Property: IC50; scope: individual compounds
parameter: IC50 (µM)

> print(dat)
                              line.notation                               test.system  obs.value
1  CC(=O)N1CCC[C@H](Cn2c(-c3cc(C)c(=O)n(C)c3)nc3ccccc32)C1  Bromodomain-containing protein 4 (Homo sapiens)      0.501
2  CC(=O)N1CCC[C@@H](Cn2c(-c3cc(C)c(=O)n(C)c3)nc3cc(Br)ccc32)C1  Bromodomain-containing protein 4 (Homo sapiens)      0.501
3  CC(=O)N1CCC[C@@H](Cn2c(-c3cc(C)c(=O)n(C)c3)nc3ccccc32)C1  Bromodomain-containing protein 4 (Homo sapiens)      0.631
